tested on: NCI/ADR-RES ovarian; experiment: NCI-60 one-dose screen, 48 h (100 = growth as untreated, 0 = no growth, -100 = all killed); conditions: 10 µM unless noted
Compounds without any hit were thinned out: in the full panel of roughly 83,000, 20% have a hit.
Label rule, in plain words: growth of 60% and up is Met, under 60% is Not met.

compound	tested-on	class
COC1=CC(c2ccc[nH]2)=N/C1=C\c1[nH]c(C)c(C)c1CCC(=O)OCc1ccccc1	NCI/ADR-RES ovarian	Not met
COC(=O)/C=C1/SC(=Nc2ccc(C(F)(F)F)cc2)N(CCc2c[nH]c3ccc(O)cc23)C1=O	NCI/ADR-RES ovarian	Not met
Cc1cc(=O)oc2cc(OCc3nn4c(Nc5nc6ccccc6s5)c(-c5ccccc5)nc4s3)ccc12	NCI/ADR-RES ovarian	Met
N#CC1=C(N)Oc2c(ccc3ccccc23)C1c1ccccc1 (stereo not drawn)	NCI/ADR-RES ovarian	Not met
COc1ccc(/C=N\Nc2nc(SCCC(C)C)nc(-c3ccc(OC)cc3)c2C#N)cc1	NCI/ADR-RES ovarian	Met
N#CC1=C(c2ccccc2)Nc2c(c(-c3ccc(Cl)cc3)nn2-c2ccccc2)C12C(=O)Nc1ccc(Cl)cc12 (stereo not drawn)	NCI/ADR-RES ovarian	Met
COc1cc(-c2nc3sccn3c2-c2ccnc(NCCNS(=O)(=O)c3ccccc3)n2)ccc1F	NCI/ADR-RES ovarian	Not met
COc1ccc2c(c1)N(CCO)C1=C(C(=O)OC1)C2c1cccc(F)c1 (stereo not drawn)	NCI/ADR-RES ovarian	Not met
COc1ccc(Nc2ncc(Br)c(NCCCNC(=O)C3CCCC3)n2)cc1	NCI/ADR-RES ovarian	Not met
CSc1nc2ccccc2cc1/C=[N+](\[O-])c1ccccc1	NCI/ADR-RES ovarian	Not met

Task: Hi, just wondering whether N#Cc1c(-c2ccccc2)[nH]c2ncc(-c3ccccc3)n2c1=O shows growth of 60% or higher.
Output: Met

Task: Entry O=C(Nc1cccc(-c2ccc(N3CCOCC3)nn2)c1)Nc1cccc(C(F)(F)F)c1 : is its growth no less than 60%?
Output: Met

Task: Decide: growth of CCC1=C[C@@H]2C[C@]3(C(=O)OC)c4[nH]c5ccccc5c4CC[N@+](CC(=O)Nc4cc5c(cc4OC)N(C)[C@H]4[C@@](O)(C(=O)OC)[C@H](OC(C)=O)[C@]6(CC)C=CCN7CC[C@]54[C@@H]76)(C2)[C@H]13 >= 60%?
Output: Met

Task: Confirm if growth reported for the compound COc1cc2c(cc1OCCCN1CCN(CCCOc3cc4c(cc3OC)C(=O)N3CCC[C@H]3C=N4)CC1)C=CC(C)(C)O2 is 60% or above.
Output: Not met

Task: Assess whether reported growth for COCCOc1cc2ncnc(N3CCN(c4ncc(S(=O)(=O)N5CCCCC5)cn4)CC3)c2cc1OCCOC sits at 60% or higher.
Output: Met

Task: Reported growth at or above 60%? CN1CCc2nc3sc(C(N)=O)c(N)c3c(-c3cccs3)c2C1
Output: Not met

Task: Decide: growth of Cn1cc(-c2csc(-c3c[nH]c4ccccc34)n2)c2cnccc21 >= 60%?
Output: Not met

----------
Recorded growth for the following compounds
test system: ACHN renal; test: NCI-60 one-dose screen, 48 h (100 = growth as untreated, 0 = no growth, -100 = all killed); conditions: 10 µM unless noted
This is part of a sample that, as a whole, favours compounds with a hit. Of some 83,000 tested, about 20% had one in any assay.
Field format: number, assumed %, no unit text.

Examples from the recorded data:
In [3]: df
Out[3]:
                                   compound  measurement_kind  data_value
0   Clc1ccc(/C=N\N=C\c2ccc(Cl)c(Cl)c2)cc1Cl            growth       -3.05
1  CN(C)CC1CCC(CN(C)C)C1=O (configuration not stated)            growth         110
2  COc1ccc(C(=O)N2c3ccccc3Sc3ccccc32)c(OC)c1            growth        43.5
3  N#Cc1nc(-c2ccc(F)cc2)oc1S(=O)(=O)N1CCCCC1            growth        3.58

Task: Given C=CCSc1nnc(NC(=O)CCl)s1 , state its recorded growth.
Output: 94.5

Task: I am curious: what growth value has been reported for Cc1cc(C(=O)Nc2ncc(Cc3cccc(C(F)(F)F)c3)s2)c2ccccc2n1 ?
Output: 28.1

Task: Field request: growth | item: Fc1cnccc1C1CC(c2ccc(N3CCNCC3)cc2)=NN1 (configuration not stated)
Output: 99.9

----------
tested on: UACC-62 melanoma; assay: NCI-60 one-dose screen, 48 h (100 = growth as untreated, 0 = no growth, -100 = all killed); details: 10 µM unless noted
About 83,000 compounds went through this panel and 20% of them were active in at least one assay; those are over-represented in the sample as a whole.
Recorded growth, one value per entry.
Your answer should be a plain number; it is taken to be in %.

Worked set:
                                   molecule  measurement_kind  data_value
0                   NC(=O)C(=O)c1ccccc1NC=O            growth        92.1
1  Cc1ccc2c(Cn3cc(CSc4nc5ccccc5o4)nn3)cc(=O)oc2c1            growth         104
2  O=S(=O)(NCCNc1nccc(-c2c(-c3ccc(F)c(O)c3)nc3occn23)n1)c1ccc(Cl)cc1            growth        23.9
3                     CCSC(SCC)c1ccc(Cl)cc1            growth        98.6
4  Fc1cnccc1C1CC(c2ccc(N3CCNCC3)cc2)=NN1 (stereo not given)            growth        81.9

Task: What is its growth for UACC-62 melanoma? Entry: N#Cc1c(-c2ccccc2)cc(-c2ccccc2)n(CCCC(=O)Nc2ccccc2N)c1=O
Output: 34.2

Task: Return growth measured with UACC-62 melanoma given this molecule: O=C(N(c1ccccc1)c1ccccc1)n1cc(I)c2nc(Cl)nc(Cl)c21
Output: 37.2

Task: Request - read-out growth | tested on UACC-62 melanoma | molecule CCCCNC(=O)Oc1ccc(/C(=C(/C)Cc2ccc(OC)cc2)c2ccc(OCCN3CCCC3)cc2)cc1
Output: 45.4

Task: Which growth is reported with UACC-62 melanoma for this entry: COc1cc(C2CC(c3ccc(Nc4nc(Nc5ccc(Cl)cc5)nc(Nc5ccc(Cl)cc5)n4)cc3)=NN2C(C)=O)cc(OC)c1OC (stereo not given) ?
Output: 90.1

Task: Item Nc1nc(-c2ccc(Cl)cc2)nc2c1sc(=S)n2-c1ccccc1 with UACC-62 melanoma - growth?
Output: 46.9

----------
tested on: 786-0 renal; experiment: NCI-60 one-dose screen, 48 h; conditions: 10 µM unless noted
The panel holds about 83,000 compounds, 20% with a hit somewhere; the sample as a whole holds those more often. Activity calls are given as the source filed them. Rule for the calls: active = growth percent below 10; inactive = the rest.
Use one of these outcomes when replying: active, inactive

Study these solved cases before continuing.
compound	class
COc1cc(-c2nc3sccn3c2-c2ccnc(NCCNS(=O)(=O)c3ccccc3)n2)ccc1F	inactive
CN(C)c1ccc(-c2c(C#N)c(N)nn2C(=O)c2ccc(NC(=O)c3ccccn3)cc2)cc1	inactive
CCOc1nc(-c2ccccc2)cc2c(O)c(C(=O)N/N=C/c3ccccc3)[nH]c(=O)c12	inactive
CC(=O)O[C@@H]1C[C@]2(C(C)C)O[C@@]1(C)[C@@H]1CCC(C)=C1[C@@H]2OC(=O)/C=C/c1ccccc1	inactive
CC(C)(C)[Si](C)(C)OC1[C@@H](CNC(=O)NC(=O)NC(N)=O)O[C@@H](n2cnc3c(NC(=O)Nc4ccccc4)ncnc32)[C@H]1O[Si](C)(C)C(C)(C)C (some centres undefined)	inactive

Task: Please share the test call associated with O=C(Nc1cccc2ccccc12)NC1CC1 .
Output: inactive

Task: Answer briefly: the call reported for Cc1ccc(/C=C2\COc3ccc(O)cc3C2=O)cc1 in this assay.
Output: inactive

Task: What is the recorded call for this compound in the test? O=C(CSc1nc2ccc([N+](=O)[O-])cc2[nH]1)Nc1ccc([N+](=O)[O-])cc1
Output: inactive

Task: Assay result, entry COc1cc2ncnc(Nc3ccc(F)c(Cl)c3)c2cc1OCC(=O)N1CCN(c2ccccc2)CC1 — outcome?
Output: inactive

Task: For this compound, state the assay outcome: O=C1Nc2ccccc2/C1=C/c1nc2ccccc2c(=O)[nH]1
Output: inactive

Task: Hey, what did the test say about COc1ccc(C(=O)C/C(=C\c2ccc(Cl)cc2)C(=O)NCc2ccccc2)cc1 ?
Output: inactive

Task: Hi, sorry to bother you, what did the test record for CCCC/C(CC)=N\NS(=O)(=O)c1ccc([N+](=O)[O-])cc1 ?
Output: inactive

Task: How did this test come out for NNc1nc(-c2cccnc2)nc2c1sc(=S)n2-c1ccccc1 ?
Output: inactive

Task: What did the test return for Nc1ncc(-c2ccc3ncnc(Nc4cccc(Cl)c4)c3c2)cn1 ?
Output: inactive

Task: Recorded call for Cc1nc2sc(C(=O)Nc3ccc(Br)cc3)c(N)c2cc1C(O)c1ccccc1 (centres undefined) ?
Output: inactive

Task: Record lookup: outcome of this test for Fc1ccc(CNc2c3ccccc3nc3ccccc23)c(F)c1 ?
Output: inactive

Task: What did the test return for COc1cc2c(cc1OCCCN1CCN(CCCOc3cc4c(cc3OC)C(=O)N3CCC[C@H]3C=N4)CC1)C=CC(C)(C)O2 ?
Output: active

Task: What outcome does the record of this test show for C=C1C(=O)O[C@H]2[C@H]1CC/C(COC(=O)/C=C\C(=O)NCc1ccc(Cn3c(=O)sn(CCI)c3=O)cc1)=C\CC[C@@]1(C)O[C@@H]21 ?
Output: inactive

Task: Call for entry C#CCOC(=O)/C=C/c1cn(-c2ccccc2)nc1-c1ccc(OC)cc1 :
Output: inactive
